- protocol_description: Apparent permeability coefficient in human CaCo-2 cells at 10 uM incubated for 2 hrs by HPLC-MS analysis
- Assay type: ADME, cell-based

- compound_structure: "COc1ccc2c(c1)c(CC(=O)O)c(C)n2C(=O)c1ccc(Cl)cc1"
  Papp at 2 h, 10 µM / ×10⁻⁶ cm/s: 27
- compound_structure: "O=C(O)CCCCn1nnc(Cc2cn(Cc3ccc(Cl)cc3Cl)c3ccc(Cl)cc23)n1"
  Papp at 2 h, 10 µM / ×10⁻⁶ cm/s: 15

---

Below is a list of entries, each paired with its recorded logP value.
- protocol_description: Lipophilicity, logP of compound in acetonitrile/phosphate buffered saline at pH 7.4 by RP-HPLC analysis
- Format: physicochemical
reported_property: logP

- compound_structure: "O=C(O)CCCCn1nnc(Cc2cn(Cc3ccc(Cl)cc3Cl)c3ccccc23)n1"
  reported_property: "logP"
  reading: 4
- compound_structure: "O=C(O)CCCCn1nnc(Cc2cn(Cc3ccc(Cl)cc3Cl)c3ccc(F)cc23)n1"
  reported_property: "logP"
  reading: 4.1
- compound_structure: "O=C(O)CCc1ccc2c(c1)c(CCc1ccccc1)cn2-c1ccc(Oc2ccccc2)cc1"
  reported_property: "logP"
  reading: 6.4
- compound_structure: "Cc1c(CCOc2ccc(C(=O)O)cc2)c2cc(Cl)ccc2n1C(c1ccccc1)c1ccccc1"
  reported_property: "logP"
  reading: 6.2
- compound_structure: "O=C(O)CCCCn1nnc(Cc2cn(Cc3ccc(Cl)cc3Cl)c3ccc(Cl)cc23)n1"
  reported_property: "logP"
  reading: 4.7
- compound_structure: "Cc1ccc2c(c1)c(Cc1nnn(CCCCC(=O)O)n1)cn2Cc1ccc(Cl)cc1Cl"
  reported_property: "logP"
  reading: 4.6
- compound_structure: "COc1ccc2c(c1)c(CC(=O)O)c(C)n2C(=O)c1ccc(Cl)cc1"
  reported_property: "logP"
  reading: 2.9
- compound_structure: "O=C(O)CCCCn1nnc(Cc2cn(Cc3ccc(Cl)cc3Cl)c3ccc(C(F)(F)F)cc23)n1"
  reported_property: "logP"
  reading: 4.9
